Hey, just so you know, these numbers are from ChEMBL document CHEMBL5614428.

- System: Staphylococcus aureus
- protocol.text: Antibacterial activity against methicillin-resistant Staphylococcus aureus NRS-271 assessed as inhibition of bacterial growth incubated for 18 hrs by two fold serial dilution assay
- Format: functional
MIC: recorded values
I only need the number, in µg/mL, no unit after it.

# compound, target.or.test.system, test.result
rows = [
    ("CCNC(=O)CC[C@](C)(O)[C@H]1CC[C@]2(C)[C@@H]1[C@H](O)C[C@@H]1[C@@]3(C)Cc4nc5ccccc5nc4C(C)(C)[C@@H]3CC[C@]12C", "Staphylococcus aureus", 4),
    ("CC1(C)S[C@@H]2[C@H](NC(=O)[C@H](N)c3ccccc3)C(=O)N2[C@H]1C(=O)O [AMPICILLIN]", "Staphylococcus aureus", 4),
    ("CN(C)C(=O)CC[C@](C)(O)[C@H]1CC[C@]2(C)[C@@H]1[C@H](O)C[C@@H]1[C@@]3(C)Cc4nc5ccccc5nc4C(C)(C)[C@@H]3CC[C@]12C", "Staphylococcus aureus", 4),
    ("CNC(=O)CC[C@](C)(O)[C@H]1CC[C@]2(C)[C@@H]1[C@H](O)C[C@@H]1[C@@]3(C)Cc4nc5ccccc5nc4C(C)(C)[C@@H]3CC[C@]12C", "Staphylococcus aureus", 8),
]

For the next question, use this compound.
In: Enter reported MIC observed with Staphylococcus aureus for CC1(C)c2nc3ccccc3nc2C[C@]2(C)[C@H]3C[C@@H](O)[C@@H]4[C@@H]([C@@](C)(O)CCC(=O)Nc5ncc[nH]5)CC[C@@]4(C)[C@]3(C)CC[C@@H]12
Out: 2
